STUDY TARGET: RXFP1 (Homo sapiens)
Construct: expressed in transfected cells; host or cells: HEK293
Sequence (Q9HBX9 1-757): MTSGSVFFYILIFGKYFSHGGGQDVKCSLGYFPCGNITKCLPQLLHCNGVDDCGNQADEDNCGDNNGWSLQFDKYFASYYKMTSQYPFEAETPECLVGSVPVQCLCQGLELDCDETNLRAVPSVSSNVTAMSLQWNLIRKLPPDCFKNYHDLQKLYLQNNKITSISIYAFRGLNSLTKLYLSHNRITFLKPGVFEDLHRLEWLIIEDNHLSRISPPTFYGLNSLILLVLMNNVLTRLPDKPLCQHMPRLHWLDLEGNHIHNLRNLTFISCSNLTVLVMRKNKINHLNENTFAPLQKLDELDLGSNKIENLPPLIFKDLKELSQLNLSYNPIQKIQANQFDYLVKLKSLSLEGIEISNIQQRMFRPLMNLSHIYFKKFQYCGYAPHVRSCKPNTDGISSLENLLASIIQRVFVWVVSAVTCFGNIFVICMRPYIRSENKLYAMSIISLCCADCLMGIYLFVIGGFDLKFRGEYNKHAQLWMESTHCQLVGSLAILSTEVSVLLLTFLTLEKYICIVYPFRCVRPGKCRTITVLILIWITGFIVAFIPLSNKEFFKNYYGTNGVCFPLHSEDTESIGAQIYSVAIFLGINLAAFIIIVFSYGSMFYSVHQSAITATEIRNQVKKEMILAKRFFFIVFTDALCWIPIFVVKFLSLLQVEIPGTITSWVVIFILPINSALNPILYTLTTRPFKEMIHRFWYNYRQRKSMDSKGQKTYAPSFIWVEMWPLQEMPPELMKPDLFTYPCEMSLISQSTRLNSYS
ASSAY REMARKS: Serelaxin in vitro activity in presence of bovine serum albumin and human serum #2: cAMP in RXFP1-HEK293 cells
Assay type: cell-based
RUN CONDITIONS: 0% Plasma
QUANTITY NAME: pEC50
Answer as the number alone; pEC50 is minus log10 of concentration in mol/L.

Answer with pEC50 of Serelaxin: Recombinant 1-chain human relaxin (DSWMEEVIKLCGRELVRAQIAICGMSTWSCFRALSRKTCGVHCCKNALASYLE; Serelaxin Sequence) measured for RXFP1 (Homo sapiens).
8.10
